- System: Bscl2-GFP
- test.method.notes: ToxTracker genotoxicity assay, Bscl2-GFP reporter induction
- condition.parameters: GFP induction vs vehicle at 10% cytotoxicity; 3 h exposure with S9, 24 h recovery
Exercise: for every item that follows, state its recorded Genotoxicity test, With S9 rat liver extract, Bscl 2, 10.
One number for each entry, in fold.

compound	endpoint.value
CC(CN1CC1C)OC(=O)NCC1(C)CC(NC(=O)OC(C)CN2CC2C)CC(C)(C)C1 (centres unmarked) [Comp. Ex. 7, reference compound]	1.2

Provide reported Genotoxicity test, With S9 rat liver extract, Bscl 2, 10 for each item, in the same order as listed.
1. CC(CN1CC1C)OC(=O)NCCCCCC/N=c1\oc(=O)n(CCCCCCNC(=O)OC(C)CN2CC2C)c(=O)n1CCCCCCNC(=O)OC(C)CN1CC1C (centres unmarked) [Ex. 2]
2. CCCCOCC(CN1CC1C)OC(=O)Nc1ccc(C)c(NC(=O)OC(COCCCC)CN2CC2C)c1 (centres unmarked) [Comp. Ex. 11, reference compound]
3. CC(CN1CC1C)OC(=O)NC(C)(C)c1cccc(C(C)(C)NC(=O)OC(C)CN2CC2C)c1 (centres unmarked) [Comp. Ex. 8, reference compound]
4. C=CCOCC(CN1CC1C)OC(=O)NCCCCCCn1c(=O)n(CCCCCCNC(=O)OC(COCC=C)CN2CC2C)c(=O)n(CCCCCCNC(=O)OC(COCC=C)CN2CC2C)c1=O (centres unmarked) [Ex. 9]

[1.0, 1.3, 1.1, 1.2]

Hey, just so you know, these numbers are from patent US12180194B2.
